Recorded values, source paper PMC9032693.

# Tested on: Jurkat
# Test Description: Antiproliferative activity, resazurin assay, 72 h
# Type: cell-based, human
Quantity: GI50 (µM)
Express the result in µM but write the number alone.

- Smiles Notation: "[Br-].[Br-].c1cc2c(N3CCCCC3)nc[n+](Cc3ccc(CCCCc4ccc(C[n+]5cnc(N6CCCCC6)c6ccsc65)cc4)cc3)c2s1"
  Unit Label: "µM"
  Recorded Number: 6.7
- Smiles Notation: "[Br-].[Br-].c1cc2c(s1)c(N1CCCC1)cc[n+]2Cc1ccc(CCc2ccc(C[n+]3ccc(N4CCCC4)c4sccc43)cc2)cc1"
  Unit Label: "µM"
  Recorded Number: 8.53
- Smiles Notation: "[Br-].[Br-].c1cc2c(s1)c(N1CCCCC1)nc[n+]2Cc1ccc(CCc2ccc(C[n+]3cnc(N4CCCCC4)c4sccc43)cc2)cc1"
  Unit Label: "µM"
  Recorded Number: 5.48

Can you look up the measured GI50 of [Br-].[Br-].c1cc2c(N3CCCCCC3)nc[n+](Cc3ccc(CCCCc4ccc(C[n+]5cnc(N6CCCCCC6)c6ccsc65)cc4)cc3)c2s1 for me?
1.54
